Data credit: PubChem BioAssay (NCATS)

Experiment: P-glycoprotein substrates identified in KB-3-1 adenocarcinoma cell line, qHTS therapeutic library screen (AID 1346986); further: nearly all actives have a fitted effect of over 60% in size
Conditions: KB-3-1 parental cells viability, CellTiter-Glo, 72 h; at 44.5 µM (top of the series)
Procedure: The ATP-binding cassette transporters P-glycoprotein (P-gp) is known to limit brain penetration of many chemotherapy drugs. […] All cell lines were plated into 1536-well plates at 500 cells/well in 5 uL media. […] CellTiter-Glo reagent (Promega) was dispensed into the wells, incubated for 5 min and luminescence was read on a ViewLux instrument (Perkin-Elmer). […]
Records with an inconclusive call do not appear. Active and inactive are the calls of the source. The call rests on the fitted dose curve; in most records, active means well fitted inhibition curve with a large enough effect; inconclusive means small, poorly fitted or top-dose-only effect; inactive means no such curve, though single readings can be large or run the other way.

[
  {
    "compound": "O=S(=O)(c1cccc2cnccc12)N1CCCNCC1",
    "outcome": "inactive"
  },
  {
    "compound": "COc1cnc(NS(=O)(=O)c2ccc(N)cc2)nc1",
    "outcome": "inactive"
  },
  {
    "compound": "COc1nc(N)nc2c1ncn2[C@@H]1O[C@H](CO)[C@@H](O)[C@@H]1O",
    "outcome": "inactive"
  },
  {
    "compound": "CC1=CC(=O)c2ccccc2C1=O",
    "outcome": "inactive"
  },
  {
    "compound": "CCn1cc(C(=O)O)c(=O)c2cc(F)c(N3CCNCC3)cc21",
    "outcome": "inactive"
  },
  {
    "compound": "COC(c1ccccc1)(c1ccccc1)[C@H](Oc1nc(C)cc(C)n1)C(=O)O",
    "outcome": "inactive"
  },
  {
    "compound": "CCCCOc1ccc(CC(=O)NO)cc1",
    "outcome": "inactive"
  },
  {
    "compound": "CNC1CCCN(c2c(F)cc3c(=O)c(C(=O)O)cn(C4CC4)c3c2OC)C1 (stereo not drawn)",
    "outcome": "inactive"
  },
  {
    "compound": "CCOCC(O)COc1ccc(NC(=O)CC[S+](C)C)cc1 (stereo not drawn)",
    "outcome": "inactive"
  },
  {
    "compound": "CN1CCN(c2c(F)cc3c(=O)c(C(=O)O)cn4c3c2OCN4C)CC1",
    "outcome": "inactive"
  },
  {
    "compound": "O=NN(CCCl)C(=O)NC1CCCCC1",
    "outcome": "inactive"
  },
  {
    "compound": "O=C(O)CCn1c2c(c3ccccc31)C[C@H](NS(=O)(=O)c1ccc(F)cc1)CC2",
    "outcome": "inactive"
  },
  {
    "compound": "O=C(N[C@H](CO)[C@H](O)c1ccc([N+](=O)[O-])cc1)C(Cl)Cl",
    "outcome": "inactive"
  }
]
